tgt: Cbl-b (Homo sapiens)
Construct: Cbl-b-HiBit KI Jurkat Cells were purchased from Promega; host or cells: Cbl-b-HiBiT knock-in Jurkat cells
Sequence (Q13191 whole entry): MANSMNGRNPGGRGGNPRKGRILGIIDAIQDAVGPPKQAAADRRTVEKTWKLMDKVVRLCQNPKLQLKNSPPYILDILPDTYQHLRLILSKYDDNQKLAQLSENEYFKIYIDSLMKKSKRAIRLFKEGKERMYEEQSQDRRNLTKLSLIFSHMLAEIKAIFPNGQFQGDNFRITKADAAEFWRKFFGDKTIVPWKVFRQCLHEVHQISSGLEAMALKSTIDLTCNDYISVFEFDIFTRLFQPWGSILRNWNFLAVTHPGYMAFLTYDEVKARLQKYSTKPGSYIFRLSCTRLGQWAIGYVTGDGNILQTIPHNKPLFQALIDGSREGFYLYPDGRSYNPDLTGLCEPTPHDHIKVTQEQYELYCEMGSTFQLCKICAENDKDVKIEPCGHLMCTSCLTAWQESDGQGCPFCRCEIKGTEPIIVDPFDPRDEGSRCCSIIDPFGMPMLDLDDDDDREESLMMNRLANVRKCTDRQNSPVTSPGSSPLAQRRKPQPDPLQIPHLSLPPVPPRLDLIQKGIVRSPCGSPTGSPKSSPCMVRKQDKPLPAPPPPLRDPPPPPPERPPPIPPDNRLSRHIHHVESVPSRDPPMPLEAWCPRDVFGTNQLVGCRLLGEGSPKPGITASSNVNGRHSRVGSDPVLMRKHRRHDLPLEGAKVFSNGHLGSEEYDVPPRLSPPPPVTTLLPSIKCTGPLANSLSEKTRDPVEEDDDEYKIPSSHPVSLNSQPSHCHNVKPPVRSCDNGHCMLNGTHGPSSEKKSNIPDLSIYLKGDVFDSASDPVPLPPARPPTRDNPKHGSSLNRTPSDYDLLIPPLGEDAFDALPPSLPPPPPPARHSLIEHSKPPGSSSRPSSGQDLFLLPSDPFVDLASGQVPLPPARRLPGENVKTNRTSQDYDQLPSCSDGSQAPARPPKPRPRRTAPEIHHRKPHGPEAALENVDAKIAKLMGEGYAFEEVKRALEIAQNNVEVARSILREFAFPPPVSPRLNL
assay text: Cbl-b Degradation Method B (Nano-Glo HiBiT lytic detection)
Type: cell-based
cond: Cbl-b-HiBit KI Jurkat Cells, incubated at least 6-24 hours; half maximal degradation; read-out: Cbl-b Degredation Method B IC50
Procedure: Cbl-b Degradation Method B [table] Cbl-b-HiBit KI Jurkat Cells were purchased from Promega, and cell media consisted of RPMI 1640 with 10% […] and 1% pen/strep. The cells were counted, measured for viability, and 35 μL of the cell solution was seeded into 384 well flat bottom plates at a ratio of 20,000 cells per 35 μL. […] After incubation, 30 μL of either NanoGlo media was added to each cell, and the plates read on the Synergy Neo2 machine. […]
quantity kind: DC50

Inquiry: Find DC50 (Cbl-b (Homo sapiens)) for the entry Cn1cnnc1CC1(c2cccc(N3Cc4c(cc(NCC[C@H]5CC[C@H](OC6CCN(c7ccc8c(c7F)CN(C7CCC(=O)NC7=O)C8=O)CC6)CC5)cc4C(F)(F)F)C3=O)c2)COC1 (some centres unmarked) [Example 17]
Reply text: > 500 nM

Inquiry: Find DC50 (Cbl-b (Homo sapiens)) for the entry COc1c(N2CCC(O[C@H]3CC[C@H](CN4CCN(Cc5cc6c(c(C(F)(F)F)c5)CN(c5cccc(C7(Cc8nncn8C)COC7)c5)C6=O)CC4)CC3)CC2)ccc2c1CN(C1CCC(=O)NC1=O)C2=O (some centres unmarked) [Example 193]
Reply text: < 5 nM

Inquiry: Find DC50 (Cbl-b (Homo sapiens)) for the entry Cn1cnnc1CC1(c2cccc(N3Cc4c(cc(CN5CCC[C@H](CN6CCN(C[C@H]7CC[C@@H](OC8CCN(c9ccc%10c(c9F)CN(C9CCC(=O)NC9=O)C%10=O)CC8)CC7)CC6(C)C)C5)cc4C(F)(F)F)C3=O)c2)CCC1 (some centres unmarked) [Example 270]
Reply text: < 5 nM

Inquiry: Find DC50 (Cbl-b (Homo sapiens)) for the entry Cn1cnnc1CC1(c2cccc(-n3cc4c(C(F)(F)F)cc(CN5CCC[C@H](CN6CCC[C@H](CN7CCN(c8ccc9c(c8F)CN(C8CCC(=O)NC8=O)C9=O)CC7)C6)C5)cc4n3)c2)COC1 (some centres unmarked) [Example 155]
Reply text: > 500 nM

Inquiry: Find DC50 (Cbl-b (Homo sapiens)) for the entry Cn1cnnc1CC1(c2cccc(N3Cc4c(cc(CN5CCN(CCCOc6ccc7c(c6)C(=O)N(C6CCC(=O)NC6=O)C7=O)CC5)cc4C(F)(F)F)C3=O)c2)COC1 (centres unmarked) [Example 47]
Reply text: > 500 nM
